Ref: ChEMBL document CHEMBL3797052

Test system: SR
method: Antiproliferative activity against human SR cells assessed as cell growth at 10^-5 M after 48 hrs by sulforhodamine B assay
Assay type: functional
assay-setup: read-out: Activity
Entry flag: 1 if growth at 10 µM reaches 70%; 0 if it does not.

These solved cases illustrate the format of a correct answer.
CNC(=O)c1cc(Oc2ccc3nc(NC(=O)c4cccc(F)n4)sc3c2)ccn1	0
CNC(=O)c1cc(Oc2ccc3nc(NC(=O)Nc4ccc(Cl)c(C(F)(F)F)c4)sc3c2)ccn1	0
CNC(=O)c1cc(Oc2ccc3nc(NC(=O)c4ccc(Cl)c(C(F)(F)F)c4)sc3c2)ccn1	0
CNC(=O)c1cc(Oc2ccc3nc(NC(=O)Nc4ccc(Cl)c(Cl)c4)sc3c2)ccn1	0
CNC(=O)c1cc(Oc2ccc3nc(NC(=O)c4ccc5ncccc5c4)sc3c2)ccn1	1
CNC(=O)c1cc(Oc2ccc3nc(NC(=O)Nc4cc(C(F)(F)F)cc(C(F)(F)F)c4)sc3c2)ccn1	0
CNC(=O)c1cc(Oc2ccc3nc(NC(=O)Nc4ccc(F)cc4F)sc3c2)ccn1	1
CNC(=O)c1cc(Oc2ccc3nc(NC(=O)c4cc(C(F)(F)F)cc(C(F)(F)F)c4)sc3c2)ccn1	0

Enquiry: Please tell me: is the compound CNC(=O)c1cc(Oc2ccc3nc(NC(=O)Nc4ccc(Cl)cc4)sc3c2)ccn1 at or over 70% in terms of growth at 10 µM?
Return: 0

Enquiry: What would you report for CNC(=O)c1cc(Oc2ccc3nc(NC(=O)c4ccc5c(c4)OCCO5)sc3c2)ccn1 ?
Return: 1

----------
System: MDA-MB-435
method: Antiproliferative activity against human MDA-MB-435 cells assessed as growth inhibition after 48 hrs by sulforhodamine B assay
Type: functional
assay-setup: MDA-MB-435, 48 h
measurement-type: TGI (µM)
Only the number, expressed in µM, is required.

Please review the following examples before continuing.
CNC(=O)c1cc(Oc2ccc3nc(NC(=O)Nc4cc(C(F)(F)F)cc(C(F)(F)F)c4)sc3c2)ccn1	2.7
CNC(=O)c1cc(Oc2ccc(NC(=O)Nc3ccc(Cl)c(C(F)(F)F)c3)cc2)ccn1	3.98
CNC(=O)c1cc(Oc2ccc3nc(NC(=O)Nc4ccc(Cl)c(Cl)c4)sc3c2)ccn1	4.62

Enquiry: Record lookup: for MDA-MB-435, what TGI belongs to CNC(=O)c1cc(Oc2ccc3nc(NC(=O)c4cc(C(F)(F)F)cc(C(F)(F)F)c4)sc3c2)ccn1 ?
Return: 20.4

----------
// growth at 0.01 µM lookup, one value per entry
Test system: MCF7
method: Antiproliferative activity against human MCF7 cells assessed as cell growth at 10^-8 M after 48 hrs by sulforhodamine B assay
Assay type: functional
assay-setup: MCF7, 48 h, read-out: Activity
Only the number, expressed in %, is required.

Please review the following examples before continuing.
CNC(=O)c1cc(Oc2ccc3nc(NC(=O)Nc4cc(C(F)(F)F)cc(C(F)(F)F)c4)sc3c2)ccn1	85
CNC(=O)c1cc(Oc2ccc3nc(NC(=O)c4cc(C(F)(F)F)cc(C(F)(F)F)c4)sc3c2)ccn1	93
CNC(=O)c1cc(Oc2ccc3nc(NC(=O)Nc4ccc(Cl)c(Cl)c4)sc3c2)ccn1	87

Consider the additional compound presented here.
Enquiry: What does the data say about its growth at 0.01 µM? Entry: CNC(=O)c1cc(Oc2ccc3nc(NC(=O)Nc4ccc(Cl)c(C(F)(F)F)c4)sc3c2)ccn1
Return: 92
